The compounds below have reported IC50 for Prolyl endopeptidase (Sus scrofa).
recorded-metric: IC50

[[record]]
chemical_structure = "[N-]=[N+]=N[C@@H]1C[C@@H](C(=O)N2CCCC2)N(C(=O)CCCc2ccccc2)C1"
measured = "304 nM"

[[record]]
chemical_structure = "O=C([C@@H]1C[C@H](n2cc(C3CC3)nn2)CN1C(=O)CCCc1ccccc1)N1CCCC1"
measured = "39 nM"

[[record]]
chemical_structure = "O=C([C@@H]1C[C@H](n2cc(-c3ccccn3)nn2)CN1C(=O)OCc1ccccc1)N1CCCC1"
measured = "357 nM"

[[record]]
chemical_structure = "CC(C)(C)OC(=O)NCc1cn([C@H]2C[C@@H](C(=O)N3CCCC3)N(C(=O)OCc3ccccc3)C2)nn1"
measured = "141 nM"

[[record]]
chemical_structure = "O=C([C@@H]1C[C@@H](n2cc(-c3ccccc3)nn2)CN1C(=O)CCCc1ccccc1)N1CCCC1"
measured = "542 nM"

[[record]]
chemical_structure = "O=C([C@@H]1C[C@H](n2cc(-c3ccc(Br)cc3)nn2)CN1C(=O)CCCc1ccccc1)N1CCCC1"
measured = "14 nM"

[[record]]
chemical_structure = "CN(C)Cc1cn([C@H]2C[C@@H](C(=O)N3CCCC3)N(C(=O)CCCc3ccccc3)C2)nn1"
measured = "24 nM"

[[record]]
chemical_structure = "NCc1cn([C@H]2C[C@@H](C(=O)N3CCCC3)N(C(=O)CCCc3ccccc3)C2)nn1"
measured = "170 nM"

[[record]]
chemical_structure = "O=C([C@@H]1C[C@H](n2cc(-c3ccc(F)cc3)nn2)CN1C(=O)CCCc1ccccc1)N1CCCC1"
measured = "33 nM"


* * *

experiment: Inhibition of bovine testes DPP9 assessed as pNA release from Ala-Pro- p-nitroanilide substrate pre-incubated with enzyme for 15 min prior to substrate addition by […]
Design: species or system Bos taurus
pIC50: −log10 of the molar value.
# key: entry, value: pIC50
recorded-metric: pIC50

[[record]]
chemical_structure = "[N-]=[N+]=N[C@H]1C[C@@H](C(=O)N2CCCC2)N(C(=O)OCc2ccccc2)C1"
recorded_metric = "pIC50"
measured = "< 4.00"

[[record]]
chemical_structure = "O=C([C@@H]1C[C@H](n2cc(-c3ccccn3)nn2)CN1C(=O)CCCc1ccccc1)N1CCCC1"
recorded_metric = "pIC50"
measured = "< 4.00"

[[record]]
chemical_structure = "O=C([C@@H]1CCCN1C(=O)OCc1ccccc1)N1CCCC1"
recorded_metric = "pIC50"
measured = "< 4.00"

[[record]]
chemical_structure = "CN(C)Cc1cn([C@H]2C[C@@H](C(=O)N3CCCC3)N(C(=O)CCCc3ccccc3)C2)nn1"
recorded_metric = "pIC50"
measured = "< 5.00"

[[record]]
chemical_structure = "O=C([C@@H]1C[C@H](n2cc(COCc3ccccc3)nn2)CN1C(=O)CCCc1ccccc1)N1CCCC1"
recorded_metric = "pIC50"
measured = "< 4.00"

[[record]]
chemical_structure = "CC(C)(C)OC(=O)NCc1cn([C@H]2C[C@@H](C(=O)N3CCCC3)N(C(=O)CCCc3ccccc3)C2)nn1"
recorded_metric = "pIC50"
measured = "< 4.00"

[[record]]
chemical_structure = "N#C[C@@H]1CCCN1C(=O)[C@@H]1CCCN1C(=O)CCCc1ccccc1"
recorded_metric = "pIC50"
measured = "< 4.00"

[[record]]
chemical_structure = "O=C([C@@H]1C[C@H](n2cc(-c3ccc(F)cc3F)nn2)CN1C(=O)CCCc1ccccc1)N1CCCC1"
recorded_metric = "pIC50"
measured = "< 5.00"

[[record]]
chemical_structure = "[N-]=[N+]=N[C@H]1C[C@@H](C(=O)N2CCCC2)N(C(=O)CCCc2ccccc2)C1"
recorded_metric = "pIC50"
measured = "< 4.00"

[[record]]
chemical_structure = "O=C([C@@H]1C[C@H](n2cc(-c3ccccc3)nn2)CN1C(=O)CCCc1ccccc1)N1CCCC1"
recorded_metric = "pIC50"
measured = "< 4.00"

[[record]]
chemical_structure = "O=C([C@@H]1C[C@H](n2cc(-c3ccc(F)cc3)nn2)CN1C(=O)CCCc1ccccc1)N1CCCC1"
recorded_metric = "pIC50"
measured = "< 4.00"

[[record]]
chemical_structure = "C[Si](C)(C)c1cn([C@H]2C[C@@H](C(=O)N3CCCC3)N(C(=O)OCc3ccccc3)C2)nn1"
recorded_metric = "pIC50"
measured = "< 4.00"

[[record]]
chemical_structure = "O=C([C@@H]1C[C@H](n2ccnn2)CN1C(=O)OCc1ccccc1)N1CCCC1"
recorded_metric = "pIC50"
measured = 4.17

[[record]]
chemical_structure = "CC(C)(C)OC(=O)NCc1cn([C@@H]2C[C@@H](C(=O)N3CCCC3)N(C(=O)CCCc3ccccc3)C2)nn1"
recorded_metric = "pIC50"
measured = "< 4.00"

[[record]]
chemical_structure = "[N-]=[N+]=N[C@@H]1C[C@@H](C(=O)N2CCCC2)N(C(=O)CCCc2ccccc2)C1"
recorded_metric = "pIC50"
measured = "< 4.00"

[[record]]
chemical_structure = "N#C[C@@H]1CCCN1C(=O)[C@@H]1C[C@H](N=[N+]=[N-])CN1C(=O)CCCc1ccccc1"
recorded_metric = "pIC50"
measured = "< 4.00"

[[record]]
chemical_structure = "O=C([C@@H]1C[C@H](n2cc(-c3ccc(Br)cc3)nn2)CN1C(=O)CCCc1ccccc1)N1CCCC1"
recorded_metric = "pIC50"
measured = "< 5.00"

[[record]]
chemical_structure = "O=C([C@@H]1C[C@H](n2cc(-c3ccccc3Cl)nn2)CN1C(=O)CCCc1ccccc1)N1CCCC1"
recorded_metric = "pIC50"
measured = "< 4.00"


* * *

Catalogue of compounds with associated IC50
experiment: Inhibition of bovine testes DPP9 assessed as pNA release from Ala-Pro- p-nitroanilide substrate pre-incubated with enzyme for 15 min prior to substrate addition by […]
Set-up: species or system Bos taurus
recorded-metric: IC50

[[record]]
chemical_structure = "O=C([C@@H]1C[C@H](n2cc(C3CCCCC3)nn2)CN1C(=O)CCCc1ccccc1)N1CCCC1"
recorded_metric = "IC50"
measured = "> 100 µM"

[[record]]
chemical_structure = "O=C([C@@H]1CCCN1C(=O)CCCc1ccccc1)N1CCCC1"
recorded_metric = "IC50"
measured = "> 100 µM"

[[record]]
chemical_structure = "O=C([C@@H]1C[C@H](n2cc(-c3ccccc3)nn2)CN1C(=O)OCc1ccccc1)N1CCCC1"
recorded_metric = "IC50"
measured = "> 100 µM"

[[record]]
chemical_structure = "O=C([C@@H]1C[C@H](n2cc(-c3ccccn3)nn2)CN1C(=O)OCc1ccccc1)N1CCCC1"
recorded_metric = "IC50"
measured = "53 µM"

[[record]]
chemical_structure = "CC(C)(C)OC(=O)NCc1cn([C@H]2C[C@@H](C(=O)N3CCC[C@H]3C#N)N(C(=O)CCCc3ccccc3)C2)nn1"
recorded_metric = "IC50"
measured = "> 100 µM"

[[record]]
chemical_structure = "O=C([C@@H]1C[C@H](n2cc(CN3CCNCC3)nn2)CN1C(=O)CCCc1ccccc1)N1CCCC1"
recorded_metric = "IC50"
measured = "1.3 µM"

[[record]]
chemical_structure = "O=C([C@@H]1C[C@H](n2cc(-c3ccc(F)c(F)c3)nn2)CN1C(=O)CCCc1ccccc1)N1CCCC1"
recorded_metric = "IC50"
measured = "< 100 µM"

[[record]]
chemical_structure = "O=C([C@@H]1C[C@H](n2cc(CN3CCOCC3)nn2)CN1C(=O)CCCc1ccccc1)N1CCCC1"
recorded_metric = "IC50"
measured = "1.1 µM"

[[record]]
chemical_structure = "NCc1cn([C@H]2C[C@@H](C(=O)N3CCCC3)N(C(=O)CCCc3ccccc3)C2)nn1"
recorded_metric = "IC50"
measured = "> 100 µM"

[[record]]
chemical_structure = "CC(C)(C)OC(=O)NCc1cn([C@H]2C[C@@H](C(=O)N3CCCC3)N(C(=O)OCc3ccccc3)C2)nn1"
recorded_metric = "IC50"
measured = "> 10 µM"

[[record]]
chemical_structure = "O=C([C@@H]1C[C@H](n2cc(C3CC3)nn2)CN1C(=O)CCCc1ccccc1)N1CCCC1"
recorded_metric = "IC50"
measured = "> 10 µM"

[[record]]
chemical_structure = "CC(C)(C)OC(=O)N1CCN(Cc2cn([C@H]3C[C@@H](C(=O)N4CCCC4)N(C(=O)CCCc4ccccc4)C3)nn2)CC1"
recorded_metric = "IC50"
measured = "0.6 µM"

[[record]]
chemical_structure = "O=C([C@@H]1C[C@@H](n2cc(-c3ccccc3)nn2)CN1C(=O)CCCc1ccccc1)N1CCCC1"
recorded_metric = "IC50"
measured = "> 50 µM"


Measured values drawn from ChEMBL document CHEMBL2176903 for this set.
